Reference source for all entries: patent US10035778B2

measurement target: Recombinant human integrin αvβ1 (Homo sapiens (Human), UniProt P05556+P06756)
Sequence (P06756 31-992): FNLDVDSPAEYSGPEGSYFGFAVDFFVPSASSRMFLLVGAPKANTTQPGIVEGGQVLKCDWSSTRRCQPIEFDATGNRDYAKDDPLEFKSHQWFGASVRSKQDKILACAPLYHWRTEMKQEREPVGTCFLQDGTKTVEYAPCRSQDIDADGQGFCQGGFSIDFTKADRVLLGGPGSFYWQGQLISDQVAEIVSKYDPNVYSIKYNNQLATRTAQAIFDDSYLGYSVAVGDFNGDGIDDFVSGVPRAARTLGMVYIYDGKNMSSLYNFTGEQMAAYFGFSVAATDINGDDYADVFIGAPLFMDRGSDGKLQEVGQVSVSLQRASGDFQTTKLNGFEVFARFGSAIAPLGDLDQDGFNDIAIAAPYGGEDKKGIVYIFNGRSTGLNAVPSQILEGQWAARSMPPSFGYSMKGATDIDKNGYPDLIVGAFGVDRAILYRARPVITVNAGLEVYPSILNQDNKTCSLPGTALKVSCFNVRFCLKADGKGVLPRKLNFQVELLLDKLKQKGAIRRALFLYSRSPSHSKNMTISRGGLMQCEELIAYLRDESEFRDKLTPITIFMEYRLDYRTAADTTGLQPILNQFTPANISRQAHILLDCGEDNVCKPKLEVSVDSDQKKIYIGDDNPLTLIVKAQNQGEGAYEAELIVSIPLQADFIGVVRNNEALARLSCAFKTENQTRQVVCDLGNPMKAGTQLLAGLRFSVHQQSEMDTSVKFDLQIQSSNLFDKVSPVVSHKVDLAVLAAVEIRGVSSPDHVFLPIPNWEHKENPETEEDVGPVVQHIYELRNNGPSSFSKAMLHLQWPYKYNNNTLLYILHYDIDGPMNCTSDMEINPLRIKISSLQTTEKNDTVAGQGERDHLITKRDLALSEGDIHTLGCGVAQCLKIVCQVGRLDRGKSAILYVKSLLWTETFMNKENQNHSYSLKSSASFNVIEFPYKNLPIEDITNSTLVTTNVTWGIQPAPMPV
Sequence (P05556 21-728): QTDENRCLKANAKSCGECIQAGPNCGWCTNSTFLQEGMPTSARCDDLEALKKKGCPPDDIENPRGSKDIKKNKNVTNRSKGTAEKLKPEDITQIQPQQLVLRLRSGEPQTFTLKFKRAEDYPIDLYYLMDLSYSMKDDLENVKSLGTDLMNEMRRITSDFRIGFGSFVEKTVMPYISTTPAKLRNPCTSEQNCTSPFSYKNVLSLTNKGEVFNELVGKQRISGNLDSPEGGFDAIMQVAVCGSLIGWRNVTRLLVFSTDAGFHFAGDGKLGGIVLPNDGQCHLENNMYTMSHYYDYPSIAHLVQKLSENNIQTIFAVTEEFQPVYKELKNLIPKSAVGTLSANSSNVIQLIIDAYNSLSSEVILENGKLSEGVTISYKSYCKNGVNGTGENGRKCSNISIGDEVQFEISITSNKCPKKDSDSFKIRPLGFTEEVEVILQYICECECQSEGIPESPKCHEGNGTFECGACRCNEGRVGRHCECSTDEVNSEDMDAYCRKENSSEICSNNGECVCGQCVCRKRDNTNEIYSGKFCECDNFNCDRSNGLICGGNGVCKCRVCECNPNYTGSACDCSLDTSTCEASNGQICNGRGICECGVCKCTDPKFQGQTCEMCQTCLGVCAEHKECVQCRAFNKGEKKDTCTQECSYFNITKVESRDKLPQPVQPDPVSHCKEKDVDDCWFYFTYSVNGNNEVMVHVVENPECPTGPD
test method notes: Solid Phase Receptor Assay (SPRA) for αvβ1 function
test conditions: fibronectin-coated plate
pIC50: −log10 of the molar value.
measurement label: pIC50

Look over these answered cases.
N=C(N)Nc1cccc(C(=O)NCC(=O)NC(CC(=O)O)c2ccccc2)c1 (stereo not shown) [Example C5, reference compound]: 7.77
O=C(O)C[C@H](NC(=O)CNC(=O)c1cncc(NC2=NCC(O)CN2)c1)c1cc(Br)cc(Br)c1 (stereo partly shown): 9.15
O=C(O)C[C@H](NC(=O)CNC(=O)c1cc(O)cc(NC2=NCC(O)CN2)c1)c1cc(C(F)(F)F)cc(C(F)(F)F)c1 (stereo partly shown): 8.70
O=C(O)C[C@H](NC(=O)CNC(=O)c1cc(O)cc(NC2=NCC(O)CN2)c1)c1cc(Br)cc(OC(F)(F)F)c1 (stereo partly shown): 8.40
Cc1cc(Cl)cc([C@@H](CC(=O)O)NC(=O)CNC(=O)c2cc(O)cc(NC3=NCC(O)CN3)c2)c1O (stereo partly shown) [Example C10, reference compound]: 7.85

P = O=C(O)CC(NC(=O)CNC(=O)c1cc(O)cc(NC2=NCC(O)CN2)c1)c1cc(Cl)cc(Cl)c1O (stereo not shown) [Example C3, reference compound]
Q = O=C(O)C[C@H](NC(=O)CNC(=O)c1cc(O)cc(NC2=NCC(O)CN2)c1)c1cc(Br)cc(Br)c1 (stereo partly shown)
R = O=C(O)CC(NC(=O)CNC(=O)c1cc(O)cc(NC2=NCC(O)CN2)c1)c1cc(Br)cc(Br)c1O (stereo not shown) [Example C7, reference compound]
Ask: Place the items in sequence of falling pIC50. List the labels, following the order given in the request.
Result: Q, P, R
(Q: 8.70, P: 8.15, R: 7.00)

1 = Cc1cc(C)cc(C(CC(=O)O)NC(=O)CNC(=O)c2cccc(NC(=N)N)c2)c1 (stereo not shown) [Example C4, reference compound]
2 = O=C(O)C[C@H](NC(=O)CNC(=O)c1cc(O)cc(NC2=NCC(O)CN2)c1)c1cc(Cl)cc(C(F)F)c1 (stereo partly shown)
Ask: Field: entry with larger pIC50 (options 1 / 2 ). Please identify the chosen entry by its label.
Result: 2
(2: 8.70, 1: 8.00)

a = O=C(O)C[C@H](NC(=O)CNC(=O)c1cc(O)cc(NC2=NCC(O)CN2)c1)c1cc(Cl)cc(Br)c1 (stereo partly shown)
b = O=C(O)C[C@H](NC(=O)CNC(=O)c1cc(O)cc(NC2=NCC(O)CN2)c1)c1ccccc1 (stereo partly shown) [Example C2, reference compound]
c = Cc1ccc(O)c(C(CC(=O)O)NC(=O)CNC(=O)c2cccc(NC(=N)N)c2)c1 (stereo not shown) [Example C8, reference compound]
Ask: Rank items: key pIC50, increasing. In plain terms: list the labels in the order you were asked to.
Result: c, b, a
